Origin of values: the supplement of paper PMC13380429

- Test system: Vero E6 infected with SARS-CoV-2
- test_summary: SARS-CoV-2 infection rate relative to infected DMSO; higher = more infection, active = 60 or less
- cond: 24 h
measured_metric: SARS-CoV-2 infection rate (%)
Give your result in % as a bare value.

| compound | recorded_measurement |
| --- | --- |
| CC(C)C(N)=O [isobutyramide] (10 µM) | 111 |

Data request: Look up SARS-CoV-2 infection rate for this compound: C=C1C(=O)[C@]23[C@H](O)[C@H]1CC[C@H]2[C@@]12CO[C@]3(O)[C@@H](O)[C@@H]1C(C)(C)CC[C@@H]2O [Oridonin (Isodonol)] (0.833333 µM)
Data returned: 97

Data request: Check O=C1c2cccc(O)c2C(=O)c2c(O)cccc21 [dantron] (10 µM) too.
Data returned: 103

Data request: Please give the result for O=c1c(-n2ccnn2)c[nH]n1-c1cc(N2CCOCC2)ncn1 [molidustat] (10 µM) too.
Data returned: 98.5

Data request: Further, for CCn1c(-c2nonc2N)nc2c(C#CC(C)(C)O)ncc(OC[C@H]3CCCNC3)c21 (10 µM) ?
Data returned: 105

Data request: C[C@]12CCC(=O)C(O)=C1CC[C@@H]1[C@@H]2CC[C@]2(C)C(=O)CC[C@@H]12 [formestane] (10 µM) ?
Data returned: 115

Data request: Next up: c1coc(-c2nnc3sc(C4CCCCC4)nn23)c1 [cardionogen-1] (10 µM)
Data returned: 89
